# Test system: ETB
# measurement_notes: ETB radio receptor assay *2, 125I-endothelin-1, guinea pig kidney crude membrane fraction
# Assay type: binding, Guinea pigs
# cond: relative activity, 37 °C, 90 minutes
Non-standard residues stand in square brackets, D forms with d. Residues, ends and D or L forms follow the SMILES beside them. NMeW = CN[C@@H](Cc1c[nH]c2ccccc12)C(=O)O; Hyp = O=C(O)[C@@H]1C[C@@H](O)CN1; NMeL = CN[C@@H](CC(C)C)C(=O)O
Note to self: class labels come from recorded Binding Activity on ET Receptor (R. act.) ETB*2, ranges listed here: LOW: < 3; MID: ≥ 3 and < 40; HIGH: ≥ 40

Known results for molecules:
# molecule, assayed_target, class_label
measured = [
    ("CC(C)C[C@@H]1NC(=O)[C@@H](CC(C)C)NC(=O)[C@@H](CC(=O)O)NC(=O)[C@H](C)NC(=O)[C@@H](CC(=O)O)NC(=O)[C@@H](Cc2c[nH]c3ccccc23)NC1=O [Example 2, cyclo[-D-Asp-Ala-D-Asp-D-Leu-Leu-D-Trp-]] (cyclo(A[dD][dL]L[dW][dD]))", "ETB", "MID"),
    ("CC(C)C[C@@H]1NC(=O)[C@@H](CC(C)C)NC(=O)[C@@H](CCC(=O)O)NC(=O)[C@H](C)NC(=O)[C@@H](CC(=O)O)NC(=O)[C@@H](Cc2c[nH]c3ccccc23)NC1=O [Example 4, cyclo[-D-Asp-Ala-D-Glu-D-Leu-Leu-D-Trp-]] (cyclo(A[dE][dL]L[dW][dD]))", "ETB", "LOW"),
    ("CC(C)C[C@@H]1NC(=O)[C@@H](CC(C)C)NC(=O)[C@H](CC(=O)O)NC(=O)[C@H](Cc2c[nH]cn2)NC(=O)[C@@H](CC(=O)O)NC(=O)[C@@H](Cc2c[nH]c3ccccc23)NC1=O [Example 83, Cyclo[-D-Asp-His-Asp-D-Leu-Leu-D-Trp-]] (cyclo(D[dL]L[dW][dD]H))", "ETB", "HIGH"),
]

Problem: Category lookup for the molecule CC(C)C[C@@H]1NC(=O)[C@@H](CC(C)C)NC(=O)[C@H](CC(=O)O)NC(=O)[C@H](CC(C)C)NC(=O)[C@@H](CC(=O)O)NC(=O)[C@@H](Cc2c[nH]c3ccccc23)NC1=O [Example 18, Cyclo[-D-Asp-Leu-Asp-D-Leu-Leu-D-Trp-]] (cyclo(D[dL]L[dW][dD]L))
Solution: LOW

Problem: Which class is correct for the following molecule? CC(C)C[C@@H]1NC(=O)[C@@H](CC(C)C)NC(=O)[C@H](CC(=O)O)NC(=O)[C@H](Cc2c[nH]c3ccccc23)NC(=O)[C@@H](CC(=O)O)NC(=O)[C@@H](Cc2c[nH]c3ccccc23)NC1=O [Example 8, cyclo[-D-Asp-Trp-Asp-D-Leu-Leu-D-Trp-]] (cyclo(D[dL]L[dW][dD]W))
Solution: HIGH

Problem: Looking at CC(C)C[C@@H]1NC(=O)[C@@H](CC(C)C)NC(=O)[C@H](CC(=O)O)NC(=O)[C@@H]2C[C@@H](O)CN2C(=O)[C@@H](CC(=O)O)NC(=O)[C@@H](Cc2c[nH]c3ccccc23)NC1=O [Example 14, cyclo[-D-Asp-Hyp-Asp-D-Leu-Leu-D-Trp-]] (cyclo(D[dL]L[dW][dD][Hyp])) , which class would you pick?
Solution: HIGH

Problem: Category of CC(C)C[C@@H]1NC(=O)[C@@H](CC(C)C)NC(=O)[C@H](CC(=O)O)NC(=O)[C@H](Cc2c[nH]c3ccccc23)N(C)C(=O)[C@@H](CC(=O)O)NC(=O)[C@@H](Cc2c[nH]c3ccccc23)NC1=O [Example 67] (cyclo(D[dL]L[dW][dD][NMeW])) , please.
Solution: MID

Problem: Kindly state the category for this molecule: CC(C)C[C@@H]1NC(=O)[C@@H](CC(C)C)NC(=O)[C@H](C)NC(=O)[C@@H](CCC(=O)O)NC(=O)[C@@H](CC(=O)O)NC(=O)[C@@H](Cc2c[nH]c3ccccc23)NC1=O [Example 28, Cyclo[-D-Asp-D-Glu-Ala-D-Leu-Leu-D-Trp-]] (cyclo(A[dL]L[dW][dD][dE]))
Solution: MID

Problem: # bin lookup: classify CC(C)C[C@@H]1NC(=O)[C@@H](CC(C)C)NC(=O)[C@H](CC(=O)O)NC(=O)[C@H](CC(C)C)N(C)C(=O)[C@@H](CC(=O)O)NC(=O)[C@@H](Cc2c[nH]c3ccccc23)NC1=O [Example 47] (cyclo(D[dL]L[dW][dD][NMeL])) by its Binding Activity on ET Receptor (R. act.) ETB*2
Solution: MID
